species on record: Homo sapiens; test: To identify inhibition of the IFN signalling (Jak-Stat) pathway via expression of an eGFP reporter gene under the control of an IFN-stimulated response element (ISRE) containing MxA promoter.; format: functional; design: scale not given: direction of the effect not stated beside the values; conditions: 30 µM
Collected Percent Effect values appear next to each entry.
The reply should contain only the number, in %.

Answered examples (4):
- molecule: "O=C(Cn1nc2c(cc1=O)CCCC2)N[C@@H](C(=O)O)c1ccccc1"
  measure-unit: "%"
  number: 14.1
- molecule: "O=c1nc(CNc2ccccc2)[nH]n1Cc1ccccc1"
  measure-unit: "%"
  number: 3.25
- molecule: "COc1ccc(-c2cc(C3CCCCCN3S(=O)(=O)N(C)C)on2)cc1 (stereo unspecified)"
  measure-unit: "%"
  number: 12.8
- molecule: "Cc1nn(C)c(Cl)c1C1CCCN1CCc1ccccn1 (stereo unspecified)"
  measure-unit: "%"
  number: 4.77

Ask | Query (molecule): N#CC(Sc1nnnn1C1CCOCC1)C1CCCCC1 (stereo unspecified) ; field requested: Percent Effect
Reply | -0.799

Ask | Same lookup for O=C(CN1CCOC(Cn2cccn2)C1)NCc1cccs1 (stereo unspecified) , please.
Reply | -5.12

Ask | What do you get for O=C(COc1ccc2c(c1)CCC2)N1CCOCC1c1ncon1 (stereo unspecified) ?
Reply | 13.6

Ask | Okay, and COc1ccc(CC(=O)N2CCCC2Cn2cccn2)cc1F (stereo unspecified) ?
Reply | -12.5

Ask | Ok, now CCN1C(=O)C2(CCOCC2)c2cc(NC(=O)c3ccco3)ccc21
Reply | 14.7

Ask | One more molecule: O=c1[nH]c2nc(N3CCSCC3)ncc2c(=O)n1-c1cccc(F)c1
Reply | 9.74

Ask | Queued: CCN1C[C@@H]2[C@@H](OC)CCN(S(=O)(=O)c3ccccc3)[C@@H]2C1
Reply | -3.22
